- System: NCI-H929 complex spheroids, viability % test/control
- assay.info: Anticancer human tumor NCI-H929 cell line growth inhibition [RAS];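 note: compound exposure lasted seven days before viability was read; 100% = DMSO vehicle control viability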
- measurement.context: second compound 0.000949 µM; first compound 0.00316 µM; active compounds read low
quantity.kind: viability, T/C (%)
State just the number; it will be interpreted in %.

Can you look up viability, T/C on NCI-H929 complex spheroids, viability % test/control for C=CC(=O)N1CCN(c2nc(OCC3CCCN3C)nc3c(F)c(-c4nc(N)cc(C)c4C(F)(F)F)c(Cl)cc23)C(C)C1 (configuration not stated) + CCn1c(-c2cc(N3CCN(C)CC3)cnc2C(C)OC)c2c3cc(ccc31)-c1csc(n1)CC(NC(=O)C1CC1C)C(=O)N1CCCC(N1)C(=O)OCC(C)(C)C2 ?
98.6

# query: viability, T/C | item O=C(c1ccc(F)c(F)c1Nc1ccc(I)cc1F)N1CC(O)([C@@H]2CCCCN2)C1 + CCn1c(-c2cccnc2C(C)OC)c2c3cc(ccc31)N1CCOC(CC(NC(=O)C(C(C)C)N(C)C(=O)C3(F)CCN(C(=O)C#CC(C)(C)N(C)C)CC3)C(=O)N3CCCC(N3)C(=O)OCC(C)(C)C2)C1 | system: NCI-H929 complex spheroids, viability % test/control
109
